I'd appreciate it if you could supply inhibition values for the items below.
tgt: RAC-alpha serine/threonine-protein kinase (Homo sapiens) (UniProt P31749)
Sequence (P31749 whole entry): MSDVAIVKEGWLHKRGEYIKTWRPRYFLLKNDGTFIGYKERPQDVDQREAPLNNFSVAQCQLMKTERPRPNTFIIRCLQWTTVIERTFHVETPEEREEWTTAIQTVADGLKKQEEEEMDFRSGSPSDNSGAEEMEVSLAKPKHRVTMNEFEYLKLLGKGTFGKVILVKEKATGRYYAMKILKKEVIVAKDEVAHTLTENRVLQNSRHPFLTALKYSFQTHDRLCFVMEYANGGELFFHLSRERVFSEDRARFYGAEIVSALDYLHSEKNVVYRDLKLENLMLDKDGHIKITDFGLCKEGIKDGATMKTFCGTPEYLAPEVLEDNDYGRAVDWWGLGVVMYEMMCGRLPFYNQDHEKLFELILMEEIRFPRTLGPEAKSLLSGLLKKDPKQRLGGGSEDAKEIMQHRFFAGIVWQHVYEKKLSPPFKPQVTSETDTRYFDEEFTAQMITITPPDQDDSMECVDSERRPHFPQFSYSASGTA
run_conditions: at 0.1 µM
Provide the reading as a plain figure in %.

If you can, please state the reported inhibition value of O=C1NC(=O)C(N2CCc3ccccc32)=C1c1ccc(Cl)cc1 . 1.09

If you can, please state the reported inhibition value of CCn1c(-c2nonc2N)nc2ccncc21 . 0.31

If you can, please state the reported inhibition value of CCn1c(-c2nonc2N)nc2c(C#CC(C)(C)O)nc(OC[C@@H](N)c3ccccc3)cc21 . 38.2

If you can, please state the reported inhibition value of CCCN1CCC=C(c2ccc(Nc3nc(Nc4ccccc4C(N)=O)c4cc[nH]c4n3)c(C)c2)C1 . 0.97

If you can, please state the reported inhibition value of CCn1c(-c2nonc2N)nc2c(N3CCCC3)nccc21 . -2.09

If you can, please state the reported inhibition value of Cc1ccc(NC(=O)c2ccnc(N3CCCC3)c2)cc1-c1ccc(C(=O)NCC2CC2)cc1 . -2.27

If you can, please state the reported inhibition value of COc1ccc(COc2ccc(Cc3cnc(N)nc3N)cc2OC)cc1 . 0.82

If you can, please state the reported inhibition value of COc1cc(C)c(NC(=O)CN(C)C)cc1Nc1nc(Nc2cccc(F)c2C(N)=O)c2cc[nH]c2n1 . 1.35

If you can, please state the reported inhibition value of CCn1c(-c2nonc2N)nc2cncc(C(=O)N3CCNCC3)c21 . 0.91

If you can, please state the reported inhibition value of Fc1cccc(COc2ccc(Nc3ncnc4sc(-c5cccs5)cc34)cc2Cl)c1 . 0.07

If you can, please state the reported inhibition value of Cc1nn(C)c2cc(N(C)c3ccnc(Nc4cccc(S(N)(=O)=O)c4)n3)ccc12 . 0.47

If you can, please state the reported inhibition value of NC(=O)c1cccc(Nc2nccc(Nc3cccc4[nH]ncc34)n2)c1 . -2.33

If you can, please state the reported inhibition value of CCN1CCC(CC(=O)Nc2n[nH]c3nc(-c4cccs4)c(Br)cc23)CC1 . -2.05

If you can, please state the reported inhibition value of CCCN1CCC(Oc2cc(Nc3nc(Nc4cccc(F)c4C(N)=O)c4cc[nH]c4n3)c(OC)cc2Cl)CC1 . 0.07

If you can, please state the reported inhibition value of c1cnn2ncc(-c3ccnc(Nc4ccc5c(c4)OCCO5)n3)c2c1 . 0.86

If you can, please state the reported inhibition value of CC1=C(C(=O)Nc2ccc3[nH]ncc3c2)C(c2ccc3ccccc3c2)CC(=O)N1 (stereo unspecified) . 0.52

If you can, please state the reported inhibition value of O=C(Nc1n[nH]c2nc(-c3ccco3)c(Br)cc12)C1CC1 . 0.59

If you can, please state the reported inhibition value of Fc1cccc(COc2ccc(Nc3ncnc4cc(-c5ccc[nH]5)sc34)cc2Cl)c1 . -3.51

If you can, please state the reported inhibition value of CNC(=O)c1cncc(/C=C/c2c(Cl)cccc2Cl)c1 . -2.98

If you can, please state the reported inhibition value of Nc1nc(-c2ccccn2)c(-c2ccc3ncccc3n2)s1 . 0.97

If you can, please state the reported inhibition value of O=C1NC(=O)C(c2ccc(Cl)cc2)=C1Nc1ccc(Cl)c(C(=O)O)c1 . -1.69
